Items are presented alongside their recorded Root evaluation (1-4).
# Test system: Rhizoctonia solani
# TEST_DETAILS: Pea test in soil inoculated with Rhizoctonia solani (Example 3); also: key: 4: white roots, without fungus necroses; 3: white roots, slight fungus necroses; 2: brown roots, more intense fungus necroses; 1: severe fungus necroses, roots rotted
# Type: in vivo
# TEST_CONTEXT: 10 mg active ingr. per liter of soil; 3 weeks
Number, no unit, nothing else.

Inquiry: Need Root evaluation (1-4), item CCCS(=O)(=O)c1nnc(C(Cl)(Cl)Cl)s1
Reply text: 1

Inquiry: Same question, CC[S+]([O-])c1nnc(C(Cl)(Cl)Cl)s1 (stereo not shown) this time
Reply text: 4

Inquiry: Same question, CS(=O)(=O)c1nnc(C(Cl)(Cl)Cl)s1 this time
Reply text: 4

Inquiry: Same question, C[S+]([O-])c1nnc(C(Cl)(Cl)Cl)s1 (stereo not shown) this time
Reply text: 4

====

# Tested on: Pythium ultimum
# TEST_DETAILS: Limit concentration of soil-fungicidal effectiveness, Pythium ultimum infested soil, peas (Example 1)
# Format: in vivo
# TEST_CONTEXT: Globisporangium ultimum, 20 to 23 days, 22°-25° C., germination at least 90% vs steamed soil
Items are presented alongside their recorded minimal effective concentration.

As a guide, the following entries are already answered.
CC(C)[S+]([O-])c1nnc(C(Cl)(Cl)Cl)s1 (centres unmarked): > 200 µg/mL
CCCCC[S+]([O-])c1nnc(C(Cl)Cl)s1 (centres unmarked): > 200 µg/mL
CCCCCCS(=O)(=O)c1nnc(C(Cl)(Cl)Cl)s1: > 200 µg/mL
CCC[S+]([O-])c1nnc(C(Cl)(Cl)Cl)s1 (centres unmarked): 100 µg/mL
CC(Br)c1nnc(S(C)(=O)=O)s1 (centres unmarked): 40 µg/mL
CS(=O)(=O)c1nnc(CCl)s1: 10 µg/mL
CC(C)S(=O)(=O)c1nnc(CCl)s1: 150 µg/mL
CS(=O)(=O)c1nnc(C(F)(F)C(F)(F)F)s1: 100 µg/mL

Inquiry: Need minimal effective concentration, item C[S+]([O-])c1nnc(C(F)(F)F)s1 (centres unmarked)
Reply text: 10 µg/mL

Inquiry: Same question, CCC[S+]([O-])c1nnc(C(Cl)Cl)s1 (centres unmarked) this time
Reply text: 100 µg/mL

Inquiry: Same question, C[S+]([O-])c1nnc(C(Cl)(Cl)Cl)s1 (centres unmarked) this time
Reply text: 20 µg/mL

Inquiry: Same question, C[S+]([O-])c1nnc(CF)s1 (centres unmarked) this time
Reply text: 50 µg/mL

Inquiry: Same question, CCCCCS(=O)(=O)c1nnc(C(Cl)(Cl)Cl)s1 this time
Reply text: > 200 µg/mL

Inquiry: Same question, CCCCCCCS(=O)(=O)c1nnc(C(Cl)(Cl)Cl)s1 this time
Reply text: > 200 µg/mL

Inquiry: Same question, CC(C)S(=O)(=O)c1nnc(C(Cl)(Cl)Cl)s1 this time
Reply text: 150 µg/mL

Inquiry: Same question, CCCS(=O)(=O)c1nnc(C(Cl)(Cl)Cl)s1 this time
Reply text: 150 µg/mL

Inquiry: Same question, CCS(=O)(=O)c1nnc(C(Cl)(Cl)Cl)s1 this time
Reply text: 50 µg/mL

Inquiry: Same question, CCCCS(=O)(=O)c1nnc(C(Cl)(Cl)Cl)s1 this time
Reply text: > 200 µg/mL

Inquiry: Same question, CCCCCCCCS(=O)(=O)c1nnc(C(Cl)(Cl)Cl)s1 this time
Reply text: > 200 µg/mL

Inquiry: Same question, CC[S+]([O-])c1nnc(C(F)(F)F)s1 (centres unmarked) this time
Reply text: 10 µg/mL

Inquiry: Same question, CC(C)C[S+]([O-])c1nnc(C(F)(F)F)s1 (centres unmarked) this time
Reply text: 30 µg/mL

Inquiry: Same question, CCCS(=O)(=O)c1nnc(C(Cl)Cl)s1 this time
Reply text: 100 µg/mL

Inquiry: Same question, CCCCCCS(=O)(=O)c1nnc(C(F)(F)F)s1 this time
Reply text: > 100 µg/mL

====

Items are presented alongside their recorded minimal effective concentration.
# System: Pythium ultimum
# TEST_DETAILS: Limit concentration of soil-fungicidal effectiveness, Pythium ultimum infested soil, peas (Example 1)
# Format: in vivo
# TEST_CONTEXT: Globisporangium ultimum, 20 to 23 days, 22°-25° C., germination at least 90% vs steamed soil
State the answer as a number, implicitly in µg/mL.

CC[S+]([O-])c1nnc(C(Cl)(Cl)Cl)s1 (centres unmarked) [Compound 9]: 200
CCCCCC[S+]([O-])c1nnc(C(F)(F)F)s1 (centres unmarked) [Compound 39]: 100
CC[S+]([O-])c1nnc(C(Cl)Cl)s1 (centres unmarked) [Compound 4]: 100
CS(=O)(=O)c1nnc(CBr)s1 [Compound 30]: 20

Continue with the compound presented below.
Inquiry: Need minimal effective concentration, item C[S+]([O-])c1nnc(C(Cl)Cl)s1 (centres unmarked) [Compound 3]
Reply text: 10

====

Items are presented alongside their recorded log10(minimal effective concentration).
# Test system: Pythium ultimum
# TEST_DETAILS: Limit concentration of soil-fungicidal effectiveness, Pythium ultimum infested soil, peas (Example 1)
# Assay type: in vivo
# TEST_CONTEXT: Globisporangium ultimum, 20 to 23 days, 22°-25° C., germination at least 90% vs steamed soil
# Description: Limit concentrations of the soil-fungicidal effectiveness at homogeneous mixture of the products with the infested soil. Basic condition in the evaluation are a sound root formation without fungus necroses and germination of the seed of at least 90% compared with the result obtained in steamed soil. […]
Hi team, quick reminder: these entries are log10 of minimal effective concentration (µg/mL).

As a guide, the following entries are already answered.
CS(=O)(=O)c1nnc(C(F)(F)F)s1: 1.00
CCS(=O)(=O)c1nnc(C(F)(F)F)s1: 1.00
CS(=O)(=O)c1nnc(C(Cl)Cl)s1: 1.00
CC(C)CS(=O)(=O)c1nnc(C(F)(F)F)s1: 1.30
CS(=O)(=O)c1nnc(C(F)(F)Cl)s1: 1.00

Inquiry: Need log10(minimal effective concentration), item CS(=O)(=O)c1nnc(C(Cl)(Cl)Cl)s1
Reply text: 1.60

Inquiry: Same question, C[S+]([O-])c1nnc(C(F)(F)Cl)s1 (stereo not drawn) this time
Reply text: 1.00

Inquiry: Same question, CC(C)S(=O)(=O)c1nnc(C(F)(F)F)s1 this time
Reply text: 1.00

Inquiry: Same question, CCCC[S+]([O-])c1nnc(C(Cl)(Cl)Cl)s1 (stereo not drawn) this time
Reply text: 2.30

Inquiry: Same question, CS(=O)(=O)c1nnc(CF)s1 this time
Reply text: 1.70

Inquiry: Same question, CCS(=O)(=O)c1nnc(CBr)s1 this time
Reply text: 1.70

Inquiry: Same question, CCCCC[S+]([O-])c1nnc(C(F)(F)F)s1 (stereo not drawn) this time
Reply text: 2.00

====

Items are presented alongside their recorded minimal effective concentration.
# Tested on: Pythium ultimum
# TEST_DETAILS: Limit concentration of soil-fungicidal effectiveness, Pythium ultimum infested soil, peas (Example 1)
# Assay type: in vivo
# TEST_CONTEXT: Globisporangium ultimum, 20 to 23 days, 22°-25° C., germination at least 90% vs steamed soil

As a guide, the following entries are already answered.
CCCCCCCC[S+]([O-])c1nnc(C(Cl)(Cl)Cl)s1 (stereo not drawn) [Compound 14]: > 200 µg/mL
CCC(Cl)c1nnc([S+](C)[O-])s1 (stereo not drawn) [Compound 48]: > 100 µg/mL

Inquiry: Lab note: need minimal effective concentration for CCCCCCC[S+]([O-])c1nnc(C(Cl)(Cl)Cl)s1 (stereo not drawn) [Compound 13] on Pythium ultimum, anyone have it?
Reply text: > 200 µg/mL

====

# Tested on: Pythium ultimum
# TEST_DETAILS: Limit concentration of soil-fungicidal effectiveness, Pythium ultimum infested soil, peas (Example 1)
# Type: in vivo
# TEST_CONTEXT: Globisporangium ultimum, 20 to 23 days, 22°-25° C., germination at least 90% vs steamed soil
PARAMETER_MEASURED: minimal effective concentration (µg/mL)
State the answer as a number, implicitly in µg/mL.

CCC(Cl)c1nnc(S(C)(=O)=O)s1 (stereo not drawn) [Compound 49]: 100
CS(=O)(=O)c1nnc(C(Br)Br)s1 [Compound 32]: 20
CC(C)S(=O)(=O)c1nnc(C(Cl)Cl)s1 [Compound 20]: 200
C[S+]([O-])c1nnc(CCl)s1 (stereo not drawn) [Compound 2]: 30

Continue with the compound presented below.
Inquiry: Need minimal effective concentration, item CC(Cl)(Cl)c1nnc(S(C)(=O)=O)s1 [Compound 47]
Reply text: 80

====

# Tested on: Pythium ultimum
# TEST_DETAILS: Limit concentration of soil-fungicidal effectiveness, Pythium ultimum infested soil, peas (Example 1)
# Type: in vivo
# TEST_CONTEXT: Globisporangium ultimum, 20 to 23 days, 22°-25° C., germination at least 90% vs steamed soil
PARAMETER_MEASURED: minimal effective concentration

As a guide, the following entries are already answered.
CC(C)[S+]([O-])c1nnc(C(Cl)Cl)s1 (stereo not shown): > 200 µg/mL
CCS(=O)(=O)c1nnc(C(Cl)Cl)s1: > 200 µg/mL
CC(C)C(Br)c1nnc(S(C)(=O)=O)s1 (stereo not shown): > 100 µg/mL

Inquiry: Need minimal effective concentration, item CCCCCCCS(=O)(=O)c1nnc(C(F)(F)F)s1
Reply text: > 100 µg/mL
